Quick list: koff per entry.
- Assayed system: T1, Extracellular domain (ECD) of the canine IL-4 receptor alpha-V5 epitope-AviTag-His Tag (canine)
- T1 construct: monomeric form isolated by size exclusion; also called canine IL-4RA-V5-Avi-His; canine IL-4RA
- T1 chain: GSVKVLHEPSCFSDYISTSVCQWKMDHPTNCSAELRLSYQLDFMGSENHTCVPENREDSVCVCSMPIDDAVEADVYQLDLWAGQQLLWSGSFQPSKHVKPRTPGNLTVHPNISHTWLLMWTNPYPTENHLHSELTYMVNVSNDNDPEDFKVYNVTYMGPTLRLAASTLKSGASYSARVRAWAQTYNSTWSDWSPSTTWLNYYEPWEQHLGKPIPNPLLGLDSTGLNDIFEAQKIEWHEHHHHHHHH
- Assay: SPR, Fab-SASA captured on BSA;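 further: biacore T200 SPR, Fab-SASA variants from E. coli conditioned medium captured on BSA-coated CM5 chip, canine IL-4RA injected 120 s then 420 s dissociation, 1:1 model fit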

Binder	koff [s⁻¹]
TB640_005 Fab-SASA VL-Q27H (Fab, V domains shown, not shown: SASA tag then His-tag) VH: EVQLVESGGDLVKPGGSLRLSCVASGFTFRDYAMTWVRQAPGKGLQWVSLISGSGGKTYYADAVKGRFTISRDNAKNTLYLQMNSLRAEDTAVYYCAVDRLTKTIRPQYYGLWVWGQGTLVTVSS VL: DIVMTQTPLSLSVSPGETASISCRSSHSLLYSIGYNYLDWYLQKPGQSPQGLIYLGSKRASGVPDRFSGSGSGTDFTLRISRVEANDTGVYYCMQGLQSPLTFGQGTKLEIKR	0.000979
TB640_005 Fab-SASA VL-T102S (Fab, V domains shown, not shown: SASA tag then His-tag) VH: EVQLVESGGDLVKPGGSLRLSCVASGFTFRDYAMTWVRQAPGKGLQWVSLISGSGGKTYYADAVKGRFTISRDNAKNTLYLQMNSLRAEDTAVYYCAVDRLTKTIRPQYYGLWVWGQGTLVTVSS VL: DIVMTQTPLSLSVSPGETASISCRSSQSLLYSIGYNYLDWYLQKPGQSPQGLIYLGSKRASGVPDRFSGSGSGTDFTLRISRVEANDTGVYYCMQGLQSPLSFGQGTKLEIKR	0.000492
TB640_005 Fab-SASA VL-Y35M (Fab, V domains shown, not shown: SASA tag then His-tag) VH: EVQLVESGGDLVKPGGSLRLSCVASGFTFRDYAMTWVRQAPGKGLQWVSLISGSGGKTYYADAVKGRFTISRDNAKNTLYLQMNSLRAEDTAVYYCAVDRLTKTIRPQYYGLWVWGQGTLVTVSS VL: DIVMTQTPLSLSVSPGETASISCRSSQSLLYSIGMNYLDWYLQKPGQSPQGLIYLGSKRASGVPDRFSGSGSGTDFTLRISRVEANDTGVYYCMQGLQSPLTFGQGTKLEIKR	0.000932
TB640_005 Fab-SASA VH-L112M (Fab, V domains shown, not shown: SASA tag then His-tag) VH: EVQLVESGGDLVKPGGSLRLSCVASGFTFRDYAMTWVRQAPGKGLQWVSLISGSGGKTYYADAVKGRFTISRDNAKNTLYLQMNSLRAEDTAVYYCAVDRLTKTIRPQYYGMWVWGQGTLVTVSS VL: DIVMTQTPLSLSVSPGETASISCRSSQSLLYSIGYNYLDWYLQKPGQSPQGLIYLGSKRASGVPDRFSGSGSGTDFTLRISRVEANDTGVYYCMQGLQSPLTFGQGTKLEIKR	0.000483
TB640_005 Fab-SASA VH-V114H (Fab, V domains shown, not shown: SASA tag then His-tag) VH: EVQLVESGGDLVKPGGSLRLSCVASGFTFRDYAMTWVRQAPGKGLQWVSLISGSGGKTYYADAVKGRFTISRDNAKNTLYLQMNSLRAEDTAVYYCAVDRLTKTIRPQYYGLWHWGQGTLVTVSS VL: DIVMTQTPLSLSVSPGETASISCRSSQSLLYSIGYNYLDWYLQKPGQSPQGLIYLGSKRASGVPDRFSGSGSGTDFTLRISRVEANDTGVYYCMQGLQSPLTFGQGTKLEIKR	0.000589
